# system.name: human recombinant serotonin (5-Hydroxytryptamine) 5-HT7 receptor (Homo sapiens)
# Construct: expressed in transfected cells; host or cells: CHO
# Sequence (P34969 whole entry): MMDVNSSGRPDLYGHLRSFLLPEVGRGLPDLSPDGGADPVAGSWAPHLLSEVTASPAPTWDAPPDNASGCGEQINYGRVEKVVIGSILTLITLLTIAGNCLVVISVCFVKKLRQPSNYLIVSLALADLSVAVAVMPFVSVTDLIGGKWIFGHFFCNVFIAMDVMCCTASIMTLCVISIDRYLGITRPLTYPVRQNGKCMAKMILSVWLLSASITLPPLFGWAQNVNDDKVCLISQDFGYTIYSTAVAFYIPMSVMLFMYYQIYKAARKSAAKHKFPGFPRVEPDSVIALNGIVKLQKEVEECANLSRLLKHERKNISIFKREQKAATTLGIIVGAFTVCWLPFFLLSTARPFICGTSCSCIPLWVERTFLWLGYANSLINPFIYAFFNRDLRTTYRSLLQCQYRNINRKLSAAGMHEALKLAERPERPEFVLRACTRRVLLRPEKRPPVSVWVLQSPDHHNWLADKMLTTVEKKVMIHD
# test.method.notes: Serotonin 5-HT7 radioligand binding ([3H]LSD)
# condition.label: compound at 0.1 μM; read-out: Percentage inhibition of ligand binding, Serotonin (0.1 μM) 5-HT7
measurement.type: inhibition at 0.1 µM (%)
Answers are plain numbers, in %.

The examples below pair each entry with its known result.
>>> observed_result("C/C(=C\\c1cc(C)cc2c3c(n(C)c12)CCN(C)C3)c1ccc(C)nc1 [Compound 15]")
36
>>> observed_result("Cc1cc(-c2ccc(F)cc2)c2c(c1)c1c(n2C)CCN(C)C1 [Compound 7]")
12
>>> observed_result("Cc1cc(CCc2ccc(C)nc2)c2c(c1)c1c(n2C)CCN(C)C1 [Compound 13]")
16

Now take the following molecule into account.
Report measured inhibition at 0.1 µM; entry is Cc1cc(C#Cc2ccncc2)c2[nH]c3c(c2c1)CN(C)CC3 [Compound 5]
45

====

I'd appreciate it if you could supply inhibition at 0.1 µM values for the items below.
# system.name: human recombinant histamine H1 receptor (Homo sapiens, UniProt P35367)
# Construct: expressed in transfected cells; host or cells: CHO-K1
# Sequence (P35367 whole entry): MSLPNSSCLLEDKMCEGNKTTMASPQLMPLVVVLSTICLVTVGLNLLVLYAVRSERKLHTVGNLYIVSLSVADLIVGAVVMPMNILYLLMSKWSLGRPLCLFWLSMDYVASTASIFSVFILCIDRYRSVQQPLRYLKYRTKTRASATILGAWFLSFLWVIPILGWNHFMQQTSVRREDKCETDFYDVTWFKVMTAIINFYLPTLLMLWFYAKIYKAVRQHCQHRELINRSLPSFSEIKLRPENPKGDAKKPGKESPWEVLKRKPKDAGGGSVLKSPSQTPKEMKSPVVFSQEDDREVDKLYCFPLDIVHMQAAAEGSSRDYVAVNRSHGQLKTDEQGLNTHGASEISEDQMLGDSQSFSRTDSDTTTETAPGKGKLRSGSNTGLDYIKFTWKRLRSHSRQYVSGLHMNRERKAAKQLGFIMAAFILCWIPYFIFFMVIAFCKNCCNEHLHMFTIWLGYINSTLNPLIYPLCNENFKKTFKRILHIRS
# test.method.notes: Histamine H1 radioligand binding ([3H]Pyrilamine)
# condition.label: compound at 0.1 μM; 1.2 nM [3H]Pyrilamine; read-out: Binding data (Percentage inhibition) Histamine H1 (0.1 μM)
Answers are plain numbers, in %.

The examples below pair each entry with its known result.
>>> observed_result("Cc1cc(-c2ccc(F)cc2)c2c(c1)c1c(n2C)CCN(C)C1")
6
>>> observed_result("Cc1cc(C#Cc2nccs2)c2[nH]c3c(c2c1)CN(C)CC3")
9
>>> observed_result("C#Cc1cc(C)cc2c3c(n(C)c12)CCN(C)C3")
5
>>> observed_result("Cc1ccc(C#Cc2cc(Cl)cc3c4c(n(C)c23)CCN(C)C4)cn1")
12
>>> observed_result("Cc1cc(/C=C/c2ccc(C)nc2)c2c(c1)c1c(n2C)CCN(C)C1")
25
>>> observed_result("C/C(=C\\c1cc(C)cc2c3c(n(C)c12)CCN(C)C3)c1ccncc1")
-3

Consider the following items and state reported inhibition at 0.1 µM for each.
1. C/C(=C\c1cc(C)cc2c3c(n(C)c12)CCN(C)C3)c1ccc(C)nc1
2. Cc1cc(-c2ccncc2)c2c(c1)c1c(n2C)CCN(C)C1
3. Cc1cc(CCc2ccc(C)nc2)c2c(c1)c1c(n2C)CCN(C)C1

2
0
28

Consider the following items and state reported inhibition at 0.1 µM for each.
1. Cc1cc(C#Cc2ccncc2)c2c(c1)c1c(n2C)CCN(C)C1
2. Cc1cc(C#Cc2ccc(C)nc2)c2c(c1)c1c(n2C)CCN(C)C1
3. Cc1cc(C#Cc2cccs2)c2[nH]c3c(c2c1)CN(C)CC3

[39, -14, -3]

====

# system.name: human recombinant serotonin (5-Hydroxytryptamine) 5-HT2C receptor (Homo sapiens, UniProt P28335)
# Construct: expressed in transfected cells; host or cells: CHO-K1
# Sequence (P28335 33-458): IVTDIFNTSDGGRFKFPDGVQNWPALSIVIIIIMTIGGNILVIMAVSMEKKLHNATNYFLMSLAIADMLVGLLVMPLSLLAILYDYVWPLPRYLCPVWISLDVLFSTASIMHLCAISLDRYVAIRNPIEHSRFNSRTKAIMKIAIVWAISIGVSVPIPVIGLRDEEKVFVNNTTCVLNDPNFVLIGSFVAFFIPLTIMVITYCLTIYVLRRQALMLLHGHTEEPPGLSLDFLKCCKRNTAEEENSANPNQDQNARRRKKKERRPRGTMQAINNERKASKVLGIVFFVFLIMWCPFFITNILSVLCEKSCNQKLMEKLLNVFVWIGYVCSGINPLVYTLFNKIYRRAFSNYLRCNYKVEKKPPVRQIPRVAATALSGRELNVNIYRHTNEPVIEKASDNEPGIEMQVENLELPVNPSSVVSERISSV
# test.method.notes: Serotonin 5-HT2C radioligand binding ([3H]Mesulergine)
# condition.label: compound at 0.1 μM; read-out: Percentage inhibition of ligand binding, Serotonin (0.1 μM) 5-HT2C
Lab note: anything with inhibition at 0.1 µM at or over 20% counts as 1.0; the rest go in 0.0.

>>> label("Cc1cc(C#Cc2ccc(C)nc2)c2[nH]c3c(c2c1)CN(C)CC3")
1.0
>>> label("Cc1cc(C#Cc2cccs2)c2[nH]c3c(c2c1)CN(C)CC3")
0.0
>>> label("Cc1cc(CCc2ccc(C)nc2)c2[nH]c3c(c2c1)CN(C)CC3")
1.0
>>> label("Cc1cc(C#Cc2ccc(C)nc2)c2c(c1)c1c(n2C)CCN(C)C1")
0.0
>>> label("Cc1cc(C#Cc2ccncc2)c2[nH]c3c(c2c1)CN(C)CC3")
1.0

Evaluate "CN1CCc2[nH]c3c(NCc4ccccc4)cccc3c2C1" : inhibition at 0.1 µM at minimum 20%?
1.0

Evaluate "C#Cc1cc(C)cc2c3c(n(C)c12)CCN(C)C3" : inhibition at 0.1 µM at minimum 20%?
1.0

Evaluate "C/C(=C\c1cc(C)cc2c3c(n(C)c12)CCN(C)C3)c1ccncc1" : inhibition at 0.1 µM at minimum 20%?
0.0

====

# system.name: human recombinant serotonin (5-Hydroxytryptamine) 5-HT2A receptor (Homo sapiens, UniProt P28223)
# Construct: expressed in transfected cells; host or cells: CHO-K1
# Sequence (P28223 whole entry): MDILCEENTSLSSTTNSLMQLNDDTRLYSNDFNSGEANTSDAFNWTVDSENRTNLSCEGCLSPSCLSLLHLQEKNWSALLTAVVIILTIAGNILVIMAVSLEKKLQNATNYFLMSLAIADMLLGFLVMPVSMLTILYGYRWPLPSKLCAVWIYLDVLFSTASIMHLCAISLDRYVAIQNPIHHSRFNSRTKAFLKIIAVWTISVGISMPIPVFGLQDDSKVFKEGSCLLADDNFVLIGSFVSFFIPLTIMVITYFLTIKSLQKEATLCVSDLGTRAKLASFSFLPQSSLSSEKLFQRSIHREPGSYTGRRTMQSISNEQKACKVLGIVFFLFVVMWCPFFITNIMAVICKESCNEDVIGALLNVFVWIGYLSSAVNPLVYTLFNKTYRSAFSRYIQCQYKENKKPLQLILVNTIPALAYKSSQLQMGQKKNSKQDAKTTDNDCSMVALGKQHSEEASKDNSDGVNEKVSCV
# test.method.notes: Serotonin 5-HT2A radioligand binding ([3H]Ketanserin)
# condition.label: compound at 0.1 μM; read-out: Percentage inhibition of ligand binding, Serotonin (0.1 μM) 5-HT2A
# Experimental: To evaluate in radioligand binding assays the activity of compounds of the invention, human recombinant serotonin (5-Hydroxytryptamine) 5-HT2A receptor expressed in Chinese hamster ovary (CHO) K1 cells (Bonhaus, D. et al, Br. J. Pharmacol. 115:622, 1995; Saucier, C. et al, J. Neurochem. 68:1998, 1997) in a 50 mM Tris-HCl buffer, pH 7.4, was used. […] Receptor proteins were filtered and washed, the filters were then counted to determine [^3H]Ketanserin specifically bound. […]
Lab note: anything with inhibition at 0.1 µM at or over 10% counts as class 1; the rest go in class 0.

>>> label("Cc1cc(C#Cc2nccs2)c2[nH]c3c(c2c1)CN(C)CC3 [Compound 16]")
"class 1"

Evaluate Cc1cc(C#Cc2ccncc2)c2[nH]c3c(c2c1)CN(C)CC3 [Compound 5] : inhibition at 0.1 µM at minimum 10%?
class 1

Evaluate Cc1ccc(C#Cc2cc(Cl)cc3c4c(n(C)c23)CCN(C)C4)cn1 [Compound 18] : inhibition at 0.1 µM at minimum 10%?
class 1

Evaluate C/C(=C\c1cc(C)cc2c3c(n(C)c12)CCN(C)C3)c1ccncc1 [Compound 11] : inhibition at 0.1 µM at minimum 10%?
class 1

Evaluate CN1CCc2[nH]c3c(NCc4ccncc4)cccc3c2C1 [Compound 4] : inhibition at 0.1 µM at minimum 10%?
class 0

Evaluate Cc1cc(/C=C/c2ccc(C)nc2)c2c(c1)c1c(n2C)CCN(C)C1 [Compound 14] : inhibition at 0.1 µM at minimum 10%?
class 0

Evaluate C#Cc1cc(C)cc2c3c(n(C)c12)CCN(C)C3 [Compound 10] : inhibition at 0.1 µM at minimum 10%?
class 1

Evaluate Cc1cc(C#Cc2ccc(C)nc2)c2c(c1)c1c(n2C)CCN(C)C1 [Compound 12] : inhibition at 0.1 µM at minimum 10%?
class 1

Evaluate Cc1cc(C#Cc2cccs2)c2[nH]c3c(c2c1)CN(C)CC3 [Compound 8] : inhibition at 0.1 µM at minimum 10%?
class 1

====

# system.name: rat adrenergic α1A receptor (Rattus norvegicus, UniProt P43140)
# Construct: rat adrenergic α1A receptor obtained from Wistar Rat submaxillary glands; from tissue; host or cells: Wistar rat submaxillary glands
# Sequence (P43140 whole entry): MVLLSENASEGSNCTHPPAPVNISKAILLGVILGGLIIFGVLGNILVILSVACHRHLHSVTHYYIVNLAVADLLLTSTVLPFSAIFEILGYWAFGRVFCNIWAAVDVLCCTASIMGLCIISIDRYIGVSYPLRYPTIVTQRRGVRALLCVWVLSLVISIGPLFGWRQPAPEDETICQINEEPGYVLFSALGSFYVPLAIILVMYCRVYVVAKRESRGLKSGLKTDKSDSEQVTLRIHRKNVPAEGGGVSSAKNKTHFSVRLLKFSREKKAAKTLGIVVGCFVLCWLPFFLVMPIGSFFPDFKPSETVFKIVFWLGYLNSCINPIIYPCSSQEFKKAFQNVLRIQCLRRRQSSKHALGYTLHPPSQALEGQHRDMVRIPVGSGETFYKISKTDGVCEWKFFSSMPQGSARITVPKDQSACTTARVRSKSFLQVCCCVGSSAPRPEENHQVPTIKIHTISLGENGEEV
# test.method.notes: Adrenergic α1A radioligand binding ([3H]Prazosin)
# condition.label: compound at 0.1 μM; read-out: Percentage inhibition of ligand binding, Adrenergic (0.1 μM) α1A
I'd appreciate it if you could supply inhibition at 0.1 µM values for the items below.
Numbers only, in %.

>>> observed_result("Cc1cc(CCc2ccc(C)nc2)c2c(c1)c1c(n2C)CCN(C)C1")
2
>>> observed_result("Cc1cc(C#Cc2ccc(C)nc2)c2c(c1)c1c(n2C)CCN(C)C1")
-12
>>> observed_result("C/C(=C\\c1cc(C)cc2c3c(n(C)c12)CCN(C)C3)c1ccncc1")
-14
>>> observed_result("C/C(=C\\c1cc(C)cc2c3c(n(C)c12)CCN(C)C3)c1ccc(C)nc1")
3

Consider the following items and state reported inhibition at 0.1 µM for each.
1. Cc1cc(C#Cc2nccs2)c2[nH]c3c(c2c1)CN(C)CC3
2. Cc1cc(/C=C/c2ccc(C)nc2)c2c(c1)c1c(n2C)CCN(C)C1
3. Cc1cc(C#Cc2cccs2)c2[nH]c3c(c2c1)CN(C)CC3
4. Cc1cc(-c2ccc(F)cc2)c2c(c1)c1c(n2C)CCN(C)C1
5. Cc1cc(-c2ccncc2)c2c(c1)c1c(n2C)CCN(C)C1

1. -1
2. -16
3. -5
4. 1
5. 4
